Assay system: Vitamin D3 receptor (Bos taurus)
Method description: Percent binding affinity for bovine vitamin D receptor compared to 1a

{"columns": ["Compound", "Unit abbrev", "VDR affinity"],
 "data": [
  ["C=C1/C(=C\\C=C2/CCC[C@]3(C)[C@@H]([C@H](C)CCCC(C)(C)O)CC[C@@H]23)C[C@@H](O)C[C@@H]1O", "%", 100],
  ["C[C@@H](CCCC(C)(C)O)[C@H]1CC[C@H]2/C(=C\\C=C3C[C@@H](O)C(O)(CF)[C@H](O)C3)CCC[C@]12C (some centres undefined)", "%", 60],
  ["C[C@@H](CCCC(C)(C)O)[C@H]1CC[C@H]2/C(=C\\C=C3C[C@@H](O)C(C)(O)[C@H](O)C3)CCC[C@]12C (some centres undefined)", "%", 100],
  ["CCC1(O)[C@H](O)CC(=C/C=C2/CCC[C@]3(C)[C@@H]([C@@H](C)CCCC(C)(C)O)CC[C@@H]23)C[C@H]1O (some centres undefined)", "%", 5]
]}
